- experimental.target: VIM-1 (Pseudomonas aeruginosa)
- assay.summary: Enzyme activity: determination of IC50, fluorescence assay with CCF2-FA substrate
- Format: biochemical
- condition.parameters: enzyme 30 pM, CCF2-FA 1.25 μM, 2 hours at 25° C.; read-out: VIM1 IC50
Rule: IC50 below 0.006 µM gives T, anything at or above gives F.

Field: example entries. Status: answers known.
>>> cat("CCC[C@H](C(=O)O)[C@H](Cc1ccc2ncc(N)cc2c1)c1nnn[nH]1")
"T"
>>> cat("CCC[C@H](C(=O)O)[C@H](Cc1ccc(-c2ccc(S(N)(=O)=O)cc2)cc1)c1nn[nH]n1")
"T"
>>> cat("CCC[C@H](C(=O)O)[C@H](Cc1ccc(-c2ccccc2CN2CCOCC2)cc1)c1nn[nH]n1")
"F"
>>> cat("CC(C)[C@H](C(=O)O)[C@H](Cc1ccc(-c2cnc(NCCO)nc2)cc1)c1nnn[nH]1")
"T"
>>> cat("CCC[C@H](C(=O)O)[C@H](Cc1ccc(O)nc1)c1nnn[nH]1")
"F"

Answer whether the compound CCC[C@H](C(=O)O)[C@H](Cc1ccc(N2CCN(C(C)=O)CC2)cc1)c1nn[nH]n1 has IC50 strictly less than 0.006 µM F

Here is the next compound: CC(=O)N1CCC(C[C@H](c2nnn[nH]2)[C@@H](C(=O)O)C(C)C)CC1 F

Here is the next compound: CC(C)[C@H](C(=O)O)[C@H](Cc1ccc(N)nc1)c1nnn[nH]1 F

====

- experimental.target: IMP-1 (Serratia marcescens, UniProt P52699)
- Sequence (P52699 19-246, looked up, species assumed): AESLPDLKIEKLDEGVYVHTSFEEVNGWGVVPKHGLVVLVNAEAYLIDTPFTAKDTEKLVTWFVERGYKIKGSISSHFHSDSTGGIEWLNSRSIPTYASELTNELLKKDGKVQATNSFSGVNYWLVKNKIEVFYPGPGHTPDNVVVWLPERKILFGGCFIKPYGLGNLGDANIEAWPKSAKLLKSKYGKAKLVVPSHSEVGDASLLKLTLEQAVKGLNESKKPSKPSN
- assay.summary: Enzyme activity: determination of IC50, fluorescence assay with CCF2-FA substrate
- Format: biochemical
- condition.parameters: IMP-1 enzyme 2 pM, CCF2-FA 1.25 μM, 2 hours at 25° C.; read-out: IMP1 IC50
property.name: pIC50
Reminder that pIC50 is minus the log10 of a molar concentration.

Observe how each entry below is paired with its result.
>>> assay_value("CCC[C@H](C(=O)O)[C@H](Cc1ccc(C(=O)NC2CC2)cc1)c1nnn[nH]1")
5.28
>>> assay_value("CC(C)C[C@H](C(=O)O)[C@H](Cc1ccc(N2CC(C(C)(C)O)C2)nc1)c1nnn[nH]1")
6.47
>>> assay_value("CC(C)C[C@H](C(=O)O)[C@H](Cc1ccc(N2CC(CO)(CO)C2)nc1)c1nnn[nH]1")
6.40
>>> assay_value("CCC[C@H](C(=O)O)[C@H](Cc1cnc(N(C)C)nc1)c1nnn[nH]1")
4.85
>>> assay_value("CC(C)(C)[C@H](C(=O)O)[C@H](Cc1cccc2sc(N)nc12)c1nnn[nH]1")
8.03
>>> assay_value("CCC[C@H](C(=O)O)[C@H](Cc1cccc(N2CC[C@H](N)C2)c1)c1nn[nH]n1")
5.64

Now take the following compound into account.
Item CC(C)C[C@H](C(=O)O)[C@H](Cc1ccc(COC2CCNCC2)c(F)c1)c1nn[nH]n1.O=C(O)C(F)(F)F [Example 447, 2,2,2-trifluoroacetate] has what recorded pIC50? 6.79

====

- Test system: Klebsiella pneumoniae expressing VIM-1 (IHMA599644)
- assay.summary: Antibiotic potentiation activity: synergistic concentration (MITC95) with imipenem, growth by OD600
- Type: cell-based
- condition.parameters: 95% inhibition of bacterial growth, strain IHMA599644
Collected VIM1 KP599644 MITC95 values appear next to each entry.
Record the value in µM, omitting the unit from your answer.

Item CCC[C@H](C(=O)O)[C@H](Cc1cccc(C(N)=O)c1)c1nn[nH]n1 [Example 46] has what recorded VIM1 KP599644 MITC95? 12.5

Here is the next molecule: CCC[C@H](C(=O)O)[C@H](Cc1cccc(N)n1)c1nnn[nH]1 [Example 117] 18.8

Here is the next molecule: CCC[C@H](C(=O)O)[C@H](Cc1ccc(Cl)nc1)c1nnn[nH]1 [Example 82] 25

Here is the next molecule: CCC[C@H](C(=O)O)[C@H](Cc1ccc(OCCN)nc1)c1nnn[nH]1 [Example 130] 18.8

Here is the next molecule: CC[C@H](C)[C@H](C(=O)O)[C@H](Cc1ccc(C2CCNC2)cc1)c1nnn[nH]1 (some centres unmarked) [Example 81] 6.2

Here is the next molecule: CC[C@H](C(=O)O)[C@H](Cc1ccccc1)c1nnn[nH]1 [Example 8] 62.5

Here is the next molecule: CC(C)[C@H](C(=O)O)[C@H](Cc1ccc(N)nc1)c1nnn[nH]1 [Example 121] 5.5

Here is the next molecule: CC(C)[C@H](C(=O)O)[C@H](Cc1ccc(-c2ccc(CN)cc2)cc1)c1nnn[nH]1 [Example 74] 12.5
